- TARGET OR TEST SYSTEM: T1, 4H908-bH
- T1 chain: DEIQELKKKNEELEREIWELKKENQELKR
- RUN DESCRIPTION: two-hybrid library CCNG1;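 further: natural log of median RNA to DNA barcode read ratio; higher means stronger binding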
READOUT NAME: interaction score
Please reply with the number alone, leaving off any unit.

Known results for binders:
Consider the binder shown here: DEIQELKKEIEELKRENWELKKKNQELER [4H607-bH] What is its recorded interaction score?
-1.04

Next binder: DEIQELKKENEELKRKNWELEKEIQELKR [4H754-bH]
0.329

Next binder: DEIQELKKEIEELERKNWELEKKNQELKR [4H568-bH]
0.115

Next binder: DEIQELKKKIEELERENWELKKKIQELER [4H797-bH]
-0.915

Next binder: DENQELEKKNEELERKIWELEKKIQELKR [4H1446-bH]
-0.161

Next binder: DKIQELKKEIEELEREIWELKKKNQELKR [4H2576-bH]
-1.34

Further cases:
Consider the binder shown here: DENQELKKKIEELERKNWELEKKIQELER [4H1845-bH] What is its recorded interaction score?
-1

Next binder: DKNQELEKEIEELKRKNWELEKEIQELER [4H3185-bH]
-0.797

Next binder: DEIQELEKKIEELKREIWELKKENQELER [4H331-bH]
-0.0604

Next binder: DENQELKKKIEELERKIWELEKENQELKR [4H1828-bH]
-0.285

Next binder: DEIQELEKEIEELKREIWELEKKNQELKR [4H72-bH]
0.614

Next binder: DKIQELKKEIEELERKNWELKKEIQELKR [4H2618-bH]
-1.01

Next binder: DKNQELEKEIEELERKIWELEKKNQELKR [4H3112-bH]
-0.43

Next binder: DEIQELEKKIEELKRENWELEKEIQELKR [4H338-bH]
-3.02
